Data credit: PubChem BioAssay (NCI)

Each entry below carries its recorded GI50.
System: OVCAR-5 ovarian
measurement description: NCI tumour cell line growth inhibition, 48 h

Problem: If you can, please state the reported GI50 value of C#Cc1c(I)n(C2OC(CO[Si](C)(C)C(C)(C)C)C3OC(C)(C)OC32)c(=O)[nH]c1=O (stereo unspecified) .
Solution: 20.4 µM

Problem: What about this compound? CN(C)C(=O)[C@H](O)[C@H](Cc1ccccc1)NC(=O)c1cc2cc(Cl)ccc2[nH]1
Solution: 19.1 µM

Problem: What about this compound? CCSc1nc(SCC)c2cn[nH]c2n1
Solution: 69.1 µM

Problem: What about this compound? CC1(C)[C@@H](OC(N)=O)[C@H]2O[C@H]2[C@]2(C=O)[C@H]3CC[C@]4(C)[C@@H](c5ccc(=O)oc5)[C@@H](Cl)C[C@]4(O)C3=CC[C@@H]12
Solution: 0.00606 µM

Problem: What about this compound? Cc1[nH]c2ccccc2c(=O)c1CC=C(Cl)Cl
Solution: > 100 µM

Problem: What about this compound? O=C1CSC(c2ccc(Cl)cc2Cl)N1c1ccc(F)cc1 (stereo unspecified)
Solution: 16 µM

* * *

System: KM20L2 colon
measurement description: NCI tumour cell line growth inhibition, 48 h
Each entry below carries its recorded TGI.

Some solved entries appear below for comparison.
# compound, experimental target, obs value
data = [
    ("COc1cc(/C=C(\\C#N)c2ccccc2)cc(OC)c1", "KM20L2 colon", "> 100 µM"),
    ("OCc1ccc(C2CC(c3ccco3)=NN2c2ccccc2)o1 (stereo not given)", "KM20L2 colon", "> 100 µM"),
    ("C=C1C(=O)OC2/C=C(\\COC(C)=O)CCC(OC(C)=O)C3=CC(OC3=O)C12 (stereo not given)", "KM20L2 colon", "14.3 µM"),
]

Problem: If you can, please state the reported TGI value of CSC(C1c2ccccc2N(c2ccc(C)cc2)c2[nH]c(=O)n(C)c(=O)c21)S(=O)(=O)c1ccc(C)cc1 (stereo not given) .
Solution: > 100 µM

Problem: What about this compound? O=C1NC2OC(C(O)CO)C(O)C2O1 (stereo not given)
Solution: > 100 µM

Problem: What about this compound? O=C1/C(=C/c2cccc([N+](=O)[O-])c2)COc2ccc(Br)cc21
Solution: > 100 µM

* * *

Tested on: UO-31 renal
measurement description: NCI tumour cell line growth inhibition, 48 h
measured attribute: TGI

# compound, experimental target, TGI
data = [
    ("Cc1c(C(=O)/C=C/c2ccccc2)[n+](=O)c2ccccc2n1[O-]", "UO-31 renal", "34.2 µM"),
    ("O=C(O)/C=c1/c2ccccc2n2nc3ccccc3c12", "UO-31 renal", "> 100 µM"),
    ("O=C1NC2OC(C(O)CO)C(O)C2O1 (centres undefined)", "UO-31 renal", "> 100 µM"),
]

// moving on: another record for TGI
Problem: Fill in the recorded TGI for this compound, with UO-31 renal as test system: COc1ccc(/C=C/c2cc(OC)cc(=O)o2)cc1
Solution: > 100 µM

* * *

System: OVCAR-4 ovarian
measurement description: NCI tumour cell line growth inhibition, 48 h; in the data active = GI50 below about 0.43 µM; inactive = the rest
Permitted responses: Y = active, N = inactive

# compound, class label
data = [
    ("C1C[OH+]CC[OH+]CC[OH+]CC[OH+]CC[OH+]1.[Cl-].[V]", "N"),
    ("C[C@H](O)C(=O)N1CCC(CCn2c(Sc3cc4c(cc3Br)OCO4)nc3c(N)ncnc32)CC1", "N"),
    ("CN(C)CCN1C(=O)c2ccc3c4c(ccc(c24)C1=O)C(=O)N(CCN=C=S)C3=O", "Y"),
    ("COc1cc(C(=O)c2cc(C)c3[nH]c4ccc(C)cc4c3c2C)cc(OC)c1OC", "Y"),
    ("CN(C)c1cc[c]([Sn]([c]2ccc(N(C)C)cc2)([c]2ccc(N(C)C)cc2)[c]2ccc(N(C)C)cc2)cc1", "N"),
]

Problem: What did the test return for CCCCCCCCCCCCCCCCCCOc1ccccc1CC(=O)OCC[N+]1(C)CCCC1 ?
Solution: N

Problem: What about this compound? CCOc1cc(C(C)(C)C)ccc1C1=N[C@@](C)(c2ccc(Cl)cc2)[C@@](C)(c2ccc(Cl)cc2)N1C(=O)N1CCN(CCCS(C)(=O)=O)CC1
Solution: N

Problem: What about this compound? CC(=O)N[C@H]1CSSC[C@@H](C(N)=O)NC(=O)[C@H](C(C)C)NC(=O)[C@H](C)NC(=O)[C@H](Cc2cnc[nH]2)NC1=O
Solution: N

Problem: What about this compound? CCSc1nc(SCC)c2cn[nH]c2n1
Solution: N

Problem: What about this compound? COc1cccc2c(=O)c3c(sc12)c(N1CCNCC1)nc1ccccc13
Solution: N

Problem: What about this compound? Nc1ccn(C2CCC(CO)O2)c(=O)n1 (stereo unspecified)
Solution: N

* * *

Each entry below carries its recorded TGI.
Test system: HCT-15 colon
measurement description: NCI tumour cell line growth inhibition, 48 h

Some solved entries appear below for comparison.
# compound, experimental target, TGI
data = [
    ("c1ccc(C2Nc3ccccc3C3OCCCC23)cc1 (stereo not given)", "HCT-15 colon", "> 100 µM"),
    ("Cc1ccc(-c2nc3ccc(Cl)cc3c(=O)n2N2C(=O)CSC2c2ccccc2Cl)cc1 (stereo not given)", "HCT-15 colon", "> 100 µM"),
    ("N#Cc1c(Cl)cc(Cl)n2c1nc1ccccc12", "HCT-15 colon", "12.3 µM"),
    ("CC(=O)O[C@H]1CC[C@@]2(C)C(=CC[C@H]3[C@@H]4C[C@H](N5CCOCC5)[C@H](OC(C)=O)[C@@]4(C)CC[C@@H]32)C1", "HCT-15 colon", "> 100 µM"),
    ("COc1cc(C(=O)c2cc(C)c3[nH]c4ccc(C)cc4c3c2C)cc(OC)c1OC", "HCT-15 colon", "> 100 µM"),
]

// moving on: another record for TGI
Problem: Fill in the recorded TGI for this compound, with HCT-15 colon as test system: O=C1CSC(c2ccc(Cl)cc2Cl)N1c1ccc(F)cc1 (stereo not given)
Solution: 31 µM

* * *

System: HS 578T breast
measurement description: NCI tumour cell line growth inhibition, 48 h
Each entry below carries its recorded GI50.

# compound, GI50
rows = [
    ("CCCCON(OC(=O)c1ccc2ccc3cccc4ccc1c2c34)C(C)=O", "18.8 µM"),
    ("COc1cc2[nH]c(C(=O)c3cc(OC)c(OC)c(OC)c3)c(N)c2cc1C#CC1CC1", "3.75 µM"),
]

Problem: If you can, please state the reported GI50 value of CC(C)(C[C@H]1CN(S(=O)(=O)c2cccc(C(F)(F)F)c2)c2cc(-c3cc(F)cc(OC(F)F)c3)ccc2O1)C(=O)O .
Solution: 4.47 µM

Problem: What about this compound? Cc1[nH]c2ccccc2c(=O)c1CC=C(Cl)Cl
Solution: 24.6 µM

* * *

Test system: RXF 393 renal
measurement description: NCI tumour cell line growth inhibition, 48 h; in the data active = GI50 below about 0.43 µM; inactive = the rest
Permitted responses: yes (1) (active), no (0) (inactive)

// below: answered compounds
# compound structure, experimental target, class label
measured = [
    ("ClCc1cccc(Cn2cnc3nc(Cl)nc(Cl)c32)c1", "RXF 393 renal", "no (0)"),
    ("O=c1cccc(C#CC#CC2=CCCCC2)o1", "RXF 393 renal", "no (0)"),
    ("CN(C)CCN1C(=O)c2ccc3c4c(ccc(c24)C1=O)C(=O)N(CCN=C=S)C3=O", "RXF 393 renal", "yes (1)"),
    ("CC(=O)C(=CN1CCN(C(=O)c2ccco2)C1=S)C(C)=O", "RXF 393 renal", "no (0)"),
]

Okay, next one:
Problem: What did the test return for CC(CO)(CO)NCCCCn1ccc2c1C(=O)c1c(c(O)c3ccccc3c1O)C2=O ?
Solution: no (0)

* * *

Tested on: COLO 205 colon
measurement description: NCI tumour cell line growth inhibition, 48 h
measured attribute: TGI (µM)
// units = µM; emit number, no label

Some solved entries appear below for comparison.
# compound structure, measured attribute, obs value
records = [
    ("CCCCON(OC(=O)c1ccc2ccc3cccc4ccc1c2c34)C(C)=O", "TGI", 98.9),
    ("CN(C)CCN1C(=O)c2ccc3c4c(ccc(c24)C1=O)C(=O)N(CCN=C=S)C3=O", "TGI", 0.0922),
]

Problem: If you can, please state the reported TGI value of COc1cccc2c(=O)c3c(sc12)c(N1CCNCC1)nc1ccccc13 .
Solution: 4.72

Problem: What about this compound? CC(=O)C(=CN1CCN(C(=O)c2ccco2)C1=S)C(C)=O
Solution: 54.9

Problem: What about this compound? COc1ccc(CCN2COc3c([C@@H](C)CCC=C(C)C)ccc(C)c3C2)cc1OC
Solution: 3.19
